Reference for the values: paper PMC3884847

Tested on: T. cruzi (Tulahuen strain (Tc VI) transfected with β-galactosidase), amastigote form
experiment: microbe, parasite or virus in culture
settings: Trypanosoma cruzi
measured-metric: IC50 (nM)

1) N#Cc1ccc(C(O)(c2ccc(C(F)(F)F)cc2)c2cccnc2)cc1 (centres unmarked) [compound 2]
12
2) N#Cc1ccc(C(O)(c2ccc(C(F)(F)F)cc2)c2cccnc2)c(F)c1 (centres unmarked) [compound 52]
2

---

experiment: physchem
settings: pH 2
measured-metric: solubility (µg/mL)

1) O=C(C(c1ccc(Cl)cc1)c1cccnc1)N1CCN(c2ccc(C(F)(F)F)cn2)CC1 (stereo not shown)
25

---

settings: Table 1; human liver microsomes
Overview of reported predicted human EH across a group of molecules:
measured-metric: predicted human EH

1) CC(C)(C)CC(=O)N1CCC(N(c2ccc(Cl)cc2)c2cccnc2)CC1 [compound 16]
0.91
2) CS(=O)(=O)c1ccc(N2CCC(N(c3ccc(C#N)cc3)c3cccnc3)CC2)cc1 [compound 33]
0.47
3) FC(F)(F)c1ccc(N(c2cccnc2)C2CCN(c3ccc(Cl)cc3)CC2)cc1 [compound 27]
0.65
4) N#Cc1ccc(N(c2cccnc2)C2CCN(c3ccc(C(F)(F)F)cc3)CC2)cc1 [compound 31]
0.69
